- conditionNotes: in isopropanol, 293.15 K
reportedMetric: solubility (mole fraction)
Keep it simple and answer with nothing but the number.

What does the record list as solubility (mole fraction) for `S=c1[nH]c2ccccc2s1` ? 0.0192

----------
- conditionNotes: in acetonitrile, 315.65 K
reportedMetric: solubility (mole fraction)

Which value of solubility (mole fraction) has been reported for `S=c1[nH]c2ccccc2s1` in the records? 0.0155

----------
- conditionNotes: in n-propanol, 315.65 K
reportedMetric: solubility (mole fraction)
Reply with just the number.

For the molecule `S=c1[nH]c2ccccc2s1` , what solubility (mole fraction) is on record? 0.04

----------
- conditionNotes: in ethyl acetate, 278.15 K
reportedMetric: solubility (mole fraction)
Respond numerically, and do not add a unit to the figure.

Form field: reported solubility (mole fraction) of `S=c1[nH]c2ccccc2s1` 0.0297
